Settings: segatella copri, 12 h, 2 µM
Description: The drug is tested on Prevotella copri strain: DSM18205 for biotransformation. The drug concentrations were measured before and after a 12-h incubation by liquid-chromatography-coupled mass spectrometry (LC–MS)

compound | Bacterial Biotransformation
CC(Oc1c(Cl)cccc1Cl)C1=NCCN1 (stereo not drawn) [LOFEXIDINE] | Compound metabolized
OC(c1cc(C(F)(F)F)nc2c(C(F)(F)F)cccc12)C1CCCCN1 (stereo not drawn) [MEFLOQUINE] | Compound NOT metabolized
CC(=O)OCC(=O)[C@@]1(OC(C)=O)[C@@H](C)C[C@H]2[C@@H]3C[C@H](F)C4=CC(=O)C=C[C@]4(C)[C@@]3(F)[C@@H](O)C[C@@]21C [DIFLORASONE DIACETATE] | Compound metabolized
CCc1nc(N)nc(N)c1-c1ccc(Cl)cc1 [PYRIMETHAMINE] | Compound NOT metabolized
CC#C[C@]1(O)CC[C@H]2[C@@H]3CCC4=CC(=O)CCC4=C3[C@@H](c3ccc(N(C)C)cc3)C[C@@]21C [MIFEPRISTONE] | Compound NOT metabolized
O=C(O)COCCN1CCN(C(c2ccccc2)c2ccc(Cl)cc2)CC1 (stereo not drawn) [CETIRIZINE] | Compound metabolized
CC[C@@]1(O)C(=O)OCc2c1cc1n(c2=O)Cc2cc3c(CN(C)C)c(O)ccc3nc2-1 [TOPOTECAN] | Compound NOT metabolized
COc1ccc2[nH]c([S+]([O-])Cc3ncc(C)c(OC)c3C)nc2c1 (stereo not drawn) [OMEPRAZOLE] | Compound metabolized

====

Settings: bacteroides fragilis, 12 h, 2 µM
Description: The drug is tested on Bacteroides fragilis strain: DS-208 for biotransformation. The drug concentrations were measured before and after a 12-h incubation by liquid-chromatography-coupled mass spectrometry (LC–MS)
property: Bacterial Biotransformation

given-smiles | measured-result
Fc1ccc([C@@H]2CCNC[C@H]2COc2ccc3c(c2)OCO3)cc1 | Compound NOT metabolized
N[C@@H](Cc1ccc(N(CCCl)CCCl)cc1)C(=O)O | Compound metabolized
OCCN1CCN(CCCN2c3ccccc3Sc3ccc(C(F)(F)F)cc32)CC1 | Compound metabolized
COc1cc2c(c(OC)c1OC)-c1ccc(OC)c(=O)cc1[C@@H](NC(C)=O)CC2 | Compound metabolized
N#Cc1ccc(C(c2ccc(C#N)cc2)n2cncn2)cc1 | Compound NOT metabolized

====

Experiment: The drug is tested on Bifidobacterium ruminantium strain: fecal isolate for biotransformation. The drug concentrations were measured before and after a 12-h incubation by liquid-chromatography-coupled mass spectrometry (LC–MS)
Details: 2 µM

molecule | Bacterial Biotransformation
COC(=O)C1=C(C)NC(C)=C(C(=O)OC(C)C)C1c1cccc2nonc12 (stereo not drawn) | Compound NOT metabolized
OCCN1CCN(CCCN2c3ccccc3Sc3ccc(C(F)(F)F)cc32)CC1 | Compound NOT metabolized
Cc1ccc(S(=O)(=O)NC(=O)NN2CC3CCCC3C2)cc1 (stereo not drawn) [GLICLAZIDE] | Compound NOT metabolized
CC(Oc1c(Cl)cccc1Cl)C1=NCCN1 (stereo not drawn) | Compound metabolized
CCOc1ccc(NC(C)=O)cc1 | Compound NOT metabolized
O=C1[C@H](CC[C@H](O)c2ccc(F)cc2)[C@@H](c2ccc(O)cc2)N1c1ccc(F)cc1 | Compound NOT metabolized
CC(=O)O[C@]1(C(C)=O)CC[C@H]2[C@@H]3C=C(Cl)C4=CC(=O)[C@@H]5C[C@@H]5[C@]4(C)[C@H]3CC[C@@]21C [CYPROTERONE ACETATE] | Compound NOT metabolized
CCOC(=O)[C@H](CCc1ccccc1)N[C@@H](C)C(=O)N1[C@H](C(=O)O)C[C@H]2CCCC[C@@H]21 | Compound metabolized
CC(C(=O)O)c1ccc2c(c1)Cc1cccnc1O2 (stereo not drawn) | Compound metabolized
C[C@@H](CO)NC(=O)[C@@H]1C=C2c3cccc4[nH]cc(c34)C[C@H]2N(C)C1.O=C(O)/C=C\C(=O)O [ERGONOVINE MALEATE] | Compound NOT metabolized
CCOc1ccccc1OCCN[C@H](C)Cc1ccc(OC)c(S(N)(=O)=O)c1.Cl [TAMSULOSIN HYDROCHLORIDE] | Compound NOT metabolized
CNCC[C@H](Oc1cccc2ccccc12)c1cccs1 | Compound metabolized
CCN(CC)CCNC(C(=O)OCCC(C)C)c1ccccc1.Cl.Cl (stereo not drawn) | Compound NOT metabolized
C[C@@H](c1ncncc1F)[C@](O)(Cn1cncn1)c1ccc(F)cc1F | Compound NOT metabolized
COCCCC/C(=N\OCCN)c1ccc(C(F)(F)F)cc1.O=C(O)/C=C\C(=O)O [FLUVOXAMINE MALEATE] | Compound metabolized
CCN(CC)C(=O)/C(C#N)=C/c1cc(O)c(O)c([N+](=O)[O-])c1 | Compound metabolized
COC1=CC(=O)C[C@@H](C)[C@]12Oc1c(Cl)c(OC)cc(OC)c1C2=O | Compound NOT metabolized
Cc1ccc(-c2nc3ccc(C)cn3c2CC(=O)N(C)C)cc1 | Compound NOT metabolized
Br.CN1CCC[C@@H]1Cc1c[nH]c2ccc(CCS(=O)(=O)c3ccccc3)cc12 [ELETRIPTAN HYDROBROMIDE] | Compound NOT metabolized
CCN(CC)CCNC(=O)c1cc(Cl)c(N)cc1OC [METOCLOPRAMIDE] | Compound NOT metabolized
COc1ccc(CCN(C)CCCC(C#N)(c2ccc(OC)c(OC)c2)C(C)C)cc1OC (stereo not drawn) | Compound NOT metabolized
CN(C(=O)CN(CCO)CC(=O)N(C)C(C)(C)Cc1ccccc1)C(C)(C)Cc1ccccc1 | Compound NOT metabolized
CN(C)CCc1c[nH]c2ccc(Cn3cncn3)cc12.O=C(O)c1ccccc1 [RIZATRIPTAN BENZOATE] | Compound NOT metabolized
CCCN1C[C@H](CSC)C[C@@H]2c3cccc4[nH]cc(c34)C[C@H]21.CS(=O)(=O)O [PERGOLIDE MESYLATE] | Compound NOT metabolized
COC(=O)[C@H]1[C@H]2C[C@@H]3c4[nH]c5cc(OC)ccc5c4CCN3C[C@H]2C[C@@H](OC(=O)c2cc(OC)c(OC)c(OC)c2)[C@@H]1OC | Compound NOT metabolized
O=C1N=C([O-])NC1(c1ccccc1)c1ccccc1.[Na+] [PHENYTOIN SODIUM] | Compound metabolized
CC[C@@H](CO)NC(=O)[C@@H]1C=C2c3cccc4c3c(cn4C)C[C@H]2N(C)C1.O=C(O)/C=C\C(=O)O [METHYSERGIDE MALEATE] | Compound metabolized
CC(C)(Oc1ccc(CCNC(=O)c2ccc(Cl)cc2)cc1)C(=O)O [BEZAFIBRATE] | Compound metabolized
CCOC(=O)C1=C[C@]2(CC)CCCN3CCc4c(n1c1ccccc41)[C@@H]32 | Compound NOT metabolized
Clc1ccc(Cn2c(CN3CCCC3)nc3ccccc32)cc1 | Compound NOT metabolized
CC12CC3CC(C)(C1)CC(N)(C3)C2 [MEMANTINE] | Compound metabolized
CCOC(=O)[C@H](CCc1ccccc1)N[C@@H](C)C(=O)N1CCC[C@H]1C(=O)O.O=C(O)/C=C\C(=O)O [ENALAPRIL MALEATE] | Compound NOT metabolized
COc1c2occc2cc2ccc(=O)oc12 | Compound NOT metabolized

====

Conditions: bacteroides fragilis, 12 h, 2 µM
property: Bacterial Biotransformation

compound | measured-result
CN1CCc2cccc3c2[C@H]1Cc1ccc(O)c(O)c1-3 | Compound NOT metabolized
COc1ccccc1OCCNCC(O)COc1cccc2[nH]c3ccccc3c12 (configuration not stated) | Compound metabolized
COc1cc2nc(N3CCN(C(=O)C4COc5ccccc5O4)CC3)nc(N)c2cc1OC.CS(=O)(=O)O (configuration not stated) [DOXAZOSIN MESYLATE] | Compound NOT metabolized
CCc1oc2ccccc2c1C(=O)c1cc(Br)c(O)c(Br)c1 | Compound NOT metabolized
CS(=O)(=O)O.O.O.O.O=C1Cc2cc(CCN3CCN(c4nsc5ccccc45)CC3)c(Cl)cc2N1 [ZIPRASIDONE MESYLATE] | Compound NOT metabolized
CN(C)CCC=C1c2ccccc2C=Cc2ccccc21 | Compound NOT metabolized
CN1C(=O)CC(C)(c2ccccc2)C1=O (configuration not stated) [METHSUXIMIDE] | Compound NOT metabolized
COc1ccccc1N1CCN(CC(O)COc2cccc3ccccc23)CC1 (configuration not stated) | Compound NOT metabolized
Cc1ccnc2c1NC(=O)c1cccnc1N2C1CC1 | Compound metabolized
CCN(CC)CCNC(=O)c1cc(Cl)c(N)cc1OC [METOCLOPRAMIDE] | Compound NOT metabolized
C=CC[C@@H]1/C=C(\C)C[C@H](C)C[C@H](OC)[C@H]2O[C@@](O)(C(=O)C(=O)N3CCCC[C@H]3C(=O)O[C@H](/C(C)=C/[C@@H]3CC[C@@H](O)[C@H](OC)C3)[C@H](C)[C@@H](O)CC1=O)[C@H](C)C[C@@H]2OC.O | Compound NOT metabolized
CCOc1ccc(NC(C)=O)cc1 | Compound NOT metabolized
CC1=C(CC(=O)O)c2cc(F)ccc2/C1=C\c1ccc([S+](C)[O-])cc1 (configuration not stated) | Compound NOT metabolized
COc1cc(NC(C)CCCN)c2ncccc2c1.O=P(O)(O)O.O=P(O)(O)O (configuration not stated) [PRIMAQUINE PHOSPHATE] | Compound NOT metabolized
Nc1nc(N)nc(-c2cc(Cl)ccc2Cl)n1.O=C(O)/C=C\C(=O)O [IRSOGLADINE MALEATE] | Compound NOT metabolized
CN(C)CCc1c[nH]c2ccc(CS(=O)(=O)N3CCCC3)cc12 | Compound NOT metabolized
CC(C)c1c(CN(C)C(C)Cc2ccccc2)n(C)n(-c2ccccc2)c1=O (configuration not stated) | Compound metabolized
CC(C)[C@H]1CC[C@H](C(=O)N[C@H](Cc2ccccc2)C(=O)O)CC1 [NATEGLINIDE] | Compound metabolized
CCOc1ccc2nc(S(N)(=O)=O)sc2c1 [ETHOXZOLAMIDE] | Compound NOT metabolized
COc1ccc2[nH]c([S+]([O-])Cc3ncc(C)c(OC)c3C)nc2c1 (configuration not stated) | Compound metabolized
CCCCC(=O)N(Cc1ccc(-c2ccccc2-c2nnn[nH]2)cc1)[C@H](C(=O)O)C(C)C | Compound metabolized
CC(=O)CC(c1ccccc1)c1c(O)c2ccccc2oc1=O (configuration not stated) | Compound NOT metabolized
CC1Cc2ccccc2N1NC(=O)c1ccc(Cl)c(S(N)(=O)=O)c1 (configuration not stated) [INDAPAMIDE] | Compound NOT metabolized
CCOC(=O)C1=C[C@]2(CC)CCCN3CCc4c(n1c1ccccc41)[C@@H]32 | Compound NOT metabolized
O=C(CCCN1CCC2(CC1)C(=O)NCN2c1ccccc1)c1ccc(F)cc1 | Compound NOT metabolized
CNS(=O)(=O)Cc1ccc2[nH]cc(CCN(C)C)c2c1.O=C(O)CCC(=O)O [SUMATRIPTAN SUCCINATE] | Compound metabolized
CN1CCC[C@@H]1CCO[C@](C)(c1ccccc1)c1ccc(Cl)cc1.O=C(O)/C=C/C(=O)O [CLEMASTINE FUMARATE] | Compound metabolized
C[C@@H](c1ncncc1F)[C@](O)(Cn1cncn1)c1ccc(F)cc1F | Compound metabolized
CC(C)c1nc(N(C)S(C)(=O)=O)nc(-c2ccc(F)cc2)c1/C=C/[C@@H](O)C[C@@H](O)CC(=O)[O-].CC(C)c1nc(N(C)S(C)(=O)=O)nc(-c2ccc(F)cc2)c1/C=C/[C@@H](O)C[C@@H](O)CC(=O)[O-].[Ca+2] | Compound NOT metabolized
O=c1[nH]c2ccccc2n1C1CCN(CCCC(c2ccc(F)cc2)c2ccc(F)cc2)CC1 [PIMOZIDE] | Compound NOT metabolized
C#C[C@]1(OC(C)=O)CC[C@H]2[C@@H]3CCC4=C[C@@H](OC(C)=O)CC[C@@H]4[C@H]3CC[C@@]21C [ETHYNODIOL DIACETATE] | Compound NOT metabolized
O=C(Nc1ccccc1)OCC(CN1CCCCC1)OC(=O)Nc1ccccc1 (configuration not stated) | Compound NOT metabolized
